For each of the compounds below, state its IC50.
# Test system: HO-1-N-1;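 note: growth inhibition of human HO-1-N-1 cells, read out with a cell viability assay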
# Measurement Notes: cells
# Format: functional, cell-based
# Applied Conditions: Homo sapiens
# Description: SANGER: Inhibition of human HO-1-N-1 cell growth in a cell viability assay.
Unit nM implied. Number only.

Record CN(NC(=O)CC(=O)NN(C)C(=S)c1ccccc1)C(=S)c1ccccc1 [ELESCLOMOL] , field IC50: 24.5

Record CS(=O)(=O)N1CCN(Cc2cc3nc(-c4cccc5[nH]ncc45)nc(N4CCOCC4)c3s2)CC1 [PICTILISIB] , field IC50: 659

Record O=C1NC(=O)c2c1c(-c1ccccc1Cl)cc1[nH]c3ccc(O)cc3c21 , field IC50: 1390

###

For each of the compounds below, state its pIC50.
# Tested on: DMS-79;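 note: growth inhibition measured with a cell viability assay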
# Measurement Notes: cells
# Assay type: functional, cell-based, Homo sapiens
# Applied Conditions: Homo sapiens, DMS-79
# Description: SANGER: Inhibition of human DMS-79 cell growth in a cell viability assay.
pIC50: −log10 of the molar value.

Record COC(=O)[C@H](CCSC)NC(=O)c1ccc(NC[C@@H](N)CS)cc1-c1ccccc1 , field pIC50: < 5.99

Record CC(C)C[C@H](NC(=O)[C@H](Cc1ccccc1)NC(=O)c1cnccn1)B(O)O , field pIC50: < 7.70

Record C[C@@H](Oc1cc(-c2cnn(C3CCNCC3)c2)cnc1N)c1c(Cl)ccc(F)c1Cl , field pIC50: < 5.70
